Biological target: MPXV ortholog of D8 (monkeypox virus)
Assay: lysate ELISA
Classify: condition met when EC50 is strictly less than 0.02 µg/mL; condition not met when EC50 is not.

binder	class
VACV-304 (antibody, V domains shown) VH: EVQLVESGGGLVQPGGSLRLSCVVSGFTFSNYWMSWVRQAPGKGLEWVANIKQDGSKKYYVDSVTGRFTISRDNAKNSLYLQMNSLRAEDTAVYYCATLNLELAVDAISEALKWGQGTLVTVSS VL: SYELTQPPSVSVSPGQTARITCSGDALPKQFAYWYQQKPGQAPVVMIYKDSERPSGIPERFSGSSSGTTVTLTISGVQAEDEADYYCQSVDNSGTYEVFGGGTQLTVL	condition not met
VACV-117 (antibody, V domains shown) VH: QVQLVQSGAEVKKPGASVKVSCKASGYTFTSYDINWVRQATGQGLEWLGWMNPNSGNTKSAQKVKGRVTMTRDTSISTAYMELSSLRSEDTAVYYCARTPFDDIGYYYWGQGTLVTVS VL: DIVMTQSPLSLSVTPGEPASISCRSSQSLLHSNGYNYLDWYLQKPGQSPQLLIYLGSNRASGVPDRFIGSGSGTDFTLKISIVEAEDVGVYYCMQALQTPGAFGPGTKVDIK	condition not met
VACV-8 (antibody, V domains shown) VH: QVQLQQWGAGLLKPSETLSLTCAGYGGSFSGYFWSWIRQPPGKGLEWIGEINHSGSTDYNPSLKSRVTISLDTSKTQFSLKLSSVTAADTAVYYCARVMTGITNYYYYYGMDVWGQGTTVTF VL: DIQLTQSPSFLSASVGDRVTITCRASQDISSYLAWYQQKPGKAPKLLIYAASTLQSGVPSRFSGSESGTEFTLTISSLQPENFATYYCQHLNSYPRGYTFGQGTKVDIK	condition not met
MPXV-61 (antibody, V domains shown) V domain 1: QVQLVQSGAEVKKPGSSVKVSCKASGETFSRYAFSWVRLAPGQGLEWLGRIIPFIDIPNYAQKFQGRVTITADKSTSTAYMELSSLRSEDTAVYYCASSLPSTYYFGSGNYPWGNWLDPWGQGTLVTVSS V domain 2: QSVVTQPPSVSAAPGQNVTISCSGSSSNIGNNYVSWYHQLPGTAPKLLIYDNDKRPSGIPDRFSGSKSGTSATLGITGLQTGDEADYYCGTWDSSLSEVVFGGGTQVTVL	condition met
VACV-66 (antibody, V domains shown) VH: QLQLQESGPGLVKPSETLSLTCTVSGDSISSNNYYWGWIRQPPGKGLEWIGSIYYSGSTYYNPSLKSRVTISVDTSKNQFSLKLSSVTAADTAVYYCARHRRVLLWFGEFQLWGQGTLVTVSS VL: QSALTQPPSVSGAPGQRVTISCTGSSSNIGAGYDVHWYQQLPGTAPKLLIYGNINRPSGVPDRFSGSKSGTSASLAITGLQAEDEADYYCQSYDSSLSGALFGGGTQLTVL	condition not met
VACV-159 (antibody, V domains shown) VH: QLQLQESGPGLVKPSETLSLTCTVSGGSISSSSYYWGWIRQPPGKGLEWIGSIYYRGSTYYNPSLKSRITISVDTSKNQFSLKLRSVTAADTAVYYCARHLRVLLWFGELLEWGQGTTVTVSS VL: QSALTQPPSVSGAPGQRVTISCTGSSSNIGADYDVHWYQQLPGTAPKLLIYGNSNRPSGVPDRFSGSKSGTSASLAITGLQAEDEADYYCQSHDSSLSGYVFGTGTKVTVL	condition not met
MPXV-96 (antibody, V domains shown) VH: QVQLQQWGAGLLISSETLSLTCGVYGGSFSGYYWTWIRQPPGKGLEWIGEINYVGSTNYNPSLKSRVTMSVDTSKNHFSLSLSSVTAADTAVYYCARGLRGNSVCFDWGPGTLV VL: ELVMTQSPATLSVSPGERASLSCRASQSVSSNLAWYQQKPGQAPRLLIYGASTRATGLPARFSGSGSGTEFTLTISSLQSEDFAIYYCQQYNNWPRTFGQGTKVDI	condition met
VACV-136 (antibody, V domains shown) V domain 1: QVTLKESGPVLVNPTETLTLTCTVSGFSLSNARMRVSWIRQPPGKALEWLAHIFSNDEKSYSTSLKSRLTISKDTSKSQVVLTMTNMDPVDTASYYCARMRGEYNSYYFDSWGQGTLVTVS V domain 2: SYELTQPPSVSVSPGQTARITCSGDALPNQYAYWYQQKPGQAPVLVIYKDSERPSGIPERFSGSSSGTTVTLTISGVQAEDEADYYCQSADSSGTSVVFGGGTQVTV	condition not met

Just for reference, patent US11667697 is where these values come from.
